B1: ZBTB22 (parent)
chain: AVLAASSPYFHDQVLLKGMTSISL

Variants of: B1
Test: protein stability index of a GFP-peptide fusion (GPS, HEK-293T) (PSI 1-6); higher = more stable;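 also: lentivirally expressed fusions sorted by FACS into six bins by GFP to DsRed ratio, PSI derived from sequencing read proportions per bin multiplied by bin number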
Settings: c terminus: a fixed tail appended
A collection of variants and their measured protein stability index
// no unit, no text: just the number

{"columns": ["Sequence variant", "protein stability index"],
 "data": [
  ["A4I", 2.48],
  ["G18N", 2.37]
]}

Recorded result, `F10G` , protein stability index: 2.6
